measuredOn: T1, human ROR1 Frizzled domain (hROR1-Fz) (human, UniProt Q01973 165-305)
T1 construct: Acro Biosystems, made in HEK293
experimentalProtocol: SPR Biacore, IgG on anti-Fc, ROR1-Fz analyte
We use 0.0006 s⁻¹ as the dividing line for koff: on or above the line is met, below is not met.

# binder, groupLabel
records = [
    ("SRP2196-A11 (antibody, V domains shown, His/FLAG-tagged IgG1) VH: EVQLVESGGGLVQPGGSLRLSCAASGFNITGYYIHWVRQAPGKGLEWVGQISPNSGTTYDADSVKGRFTISADTSKNTAYLQMNSLRAEDTAVYYCARDSRRYVRGWDYWGQGTLVTVSS VL: QAVVTQESALTTSPGETVTLTCRSSTGAVTTSNYANWVQEKPDHLFTGLIGGTNKRAPGVPARFSGSLIGDKAALTITGAQTEDEAIYFCALWYSNLWVFGGGTKLTVL", "met"),
]

QUERY: Identify whether the reported koff of the following binder is 0.0006 s⁻¹ or greater: SRP2196-C01 (antibody, V domains shown, His/FLAG-tagged IgG1) VH: EVQLVESGGGLVQPGGSLRLSCAASGFNIIGYYIHWVRQAPGKGLEWVGSITPLSGATSKADSVKGRFTISADTSKNTAYLQMNSLRAEDTAVYYCARDSRRYIRSWDYWGQGTLVTVSS VL: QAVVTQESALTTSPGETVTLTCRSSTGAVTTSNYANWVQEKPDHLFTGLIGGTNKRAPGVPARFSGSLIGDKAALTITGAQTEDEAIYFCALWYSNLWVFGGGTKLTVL
RESULT: not met

QUERY: Identify whether the reported koff of the following binder is 0.0006 s⁻¹ or greater: SRP2196-B03 (antibody, V domains shown, His/FLAG-tagged IgG1) VH: EVQLVESGGGLAQPGGSLRLSCAASGFNITGYYIHWVRQAPGKGLEWVGYISPNSGATHYADSVKGRFTISADTSKNTAYLQMNSLRAEDTAVYYCARDSRRYVRPFDYWGQGTLVTVSS VL: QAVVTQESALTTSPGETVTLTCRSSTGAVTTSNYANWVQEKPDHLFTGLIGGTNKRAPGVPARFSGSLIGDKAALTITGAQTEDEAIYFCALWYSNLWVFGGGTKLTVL
RESULT: met

QUERY: Identify whether the reported koff of the following binder is 0.0006 s⁻¹ or greater: SRP2196-B06 (antibody, V domains shown, His/FLAG-tagged IgG1) VH: EVQLVESGGGLVQPGGSLRLSCAASGFNITGYYIHWVRQAPGKGLEWVGQISPNSGSTYSADSVKGRFTISADTSKNTAYLQMNSLRAEDTAVYYCARDSRRYVLSWDYWGQGTLVTVSS VL: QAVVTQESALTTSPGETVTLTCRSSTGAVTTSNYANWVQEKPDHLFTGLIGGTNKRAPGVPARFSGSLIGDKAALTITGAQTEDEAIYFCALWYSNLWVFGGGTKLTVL
RESULT: not met

QUERY: Identify whether the reported koff of the following binder is 0.0006 s⁻¹ or greater: SRP2196-B04 (antibody, V domains shown, His/FLAG-tagged IgG1) VH: EVQLVESGGGLVQPGGSLRLSCAASGFNITEYYIHWVRQAPGKGLEWVGYISPNSGATYQADSVKGRFTISADTSKNTAYLQMNSLRAEDTAVYYCARDSRRYVRGWDYWGQGTLVTVSS VL: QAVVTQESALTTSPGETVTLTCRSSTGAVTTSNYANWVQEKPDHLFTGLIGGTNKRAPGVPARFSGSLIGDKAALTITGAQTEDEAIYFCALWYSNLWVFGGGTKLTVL
RESULT: not met

QUERY: Identify whether the reported koff of the following binder is 0.0006 s⁻¹ or greater: SRP2196-B08 (antibody, V domains shown, His/FLAG-tagged IgG1) VH: EVQLVESGGGLVQPGGSLRLSCAASGFNITGYYIHWVRQAPGKGLEWVGQISPNSGYTYLADSVKGRFTISADTSKNTAYLQMNSLRAEDTAVYYCARDSRRYVRGWDYWGQGTLVTVSS VL: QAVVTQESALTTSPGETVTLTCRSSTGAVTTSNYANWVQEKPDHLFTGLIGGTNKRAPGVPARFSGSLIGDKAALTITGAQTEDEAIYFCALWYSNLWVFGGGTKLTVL
RESULT: not met

QUERY: Identify whether the reported koff of the following binder is 0.0006 s⁻¹ or greater: SRP2196-A06 (antibody, V domains shown, His/FLAG-tagged IgG1) VH: EVQLVESGGGLVQPGGSLRLSCAASGFNITGYYIHWVRQAPGKGLEWVGQISPNSGSTHQADSVKGRFTISADTSKNTAYLQMNSLRAGDTAVYYCARDSRRYVRGWDYWGQGTLVTVSS VL: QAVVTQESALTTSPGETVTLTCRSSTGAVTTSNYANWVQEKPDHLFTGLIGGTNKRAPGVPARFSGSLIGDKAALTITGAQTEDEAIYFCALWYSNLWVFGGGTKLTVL
RESULT: met

QUERY: Identify whether the reported koff of the following binder is 0.0006 s⁻¹ or greater: SRP1944-A07 w SP34 LC3 (antibody, V domains shown, Parent of SRP2196; IgG) VH: EVQLVESGGGLVQPGGSLRLSCAASGFNITGYYIHWVRQAPGKGLEWVGYISPNSGSTYYADSVKGRFTISADTSKNTAYLQMNSLRAEDTAVYYCARDSRRYVRPFDYWGQGTLVTVSS VL: QTVVTQEPSLTVSPGGTVTLTCGSSTGAVTSGYYPNWFQQKPGQAPRGLIGGTKFLAPGTPARFSGSLLGGKAALTLSGVQPEDEAEYYCALWYSNRWVFGGGTQLTVTG
RESULT: met

QUERY: Identify whether the reported koff of the following binder is 0.0006 s⁻¹ or greater: SRP2196-A05 (antibody, V domains shown, His/FLAG-tagged IgG1) VH: EVQLVESGGGLVQPGGSLRLSCAASGFNITNYYIHWVRQAPGKGLEWVGYISPNSGATYQADSVKGRFTISADTSKNTAYLQMNSLRAEDTAVYYCARDSRRYVRSWDYWGQGTLVTVSS VL: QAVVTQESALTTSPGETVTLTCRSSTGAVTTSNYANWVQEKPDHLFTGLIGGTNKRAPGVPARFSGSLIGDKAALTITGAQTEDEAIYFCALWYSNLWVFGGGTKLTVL
RESULT: met
